# assay procedure: Plasma concentration in BALB/c mouse at 10 mg/kg, iv at 6 hrs administered as bolus dose
# Format: ADME, organism-based
# Set-up: dose 10 mg/kg, route intravenous
property: concentration at 6 h (nM)
Write the number in nM without appending the unit.

smiles record	unit abbreviation	concentration at 6 h
CNc1cc(Nc2cnc(C#N)c(O[C@H](C)CN(C)C)n2)ncc1C1CC1	nM	29
COc1cc(Nc2cnc(C#N)c(O[C@H](C)CN(C)C)n2)ncc1-c1cnn(C)c1	nM	27
COc1cc(Nc2cnc(C#N)c(O[C@@H]3CCN(C)C3)n2)ncc1-c1cnn(C)c1	nM	7
CNc1cc(Nc2cnc(C#N)c(O[C@H](C)CN(C)C)n2)ncc1-c1cnn(C)c1	nM	45
CNc1cc(Nc2cnc(C#N)c(O[C@H](C)CN(C)C)n2)ncc1C(F)(F)F	nM	33
CNc1cc(Nc2cnc(C#N)c(O[C@H]3CCN(C)C3)n2)ncc1-c1cnn(C)c1	nM	8
C#Cc1cnc(Nc2cnc(C#N)c(O[C@H](C)CN(C)C)n2)cc1NC	nM	7

Now consider the entry below.
Qu. Looking for the measured concentration at 6 h of CNc1cc(Nc2cnc(C#N)c(O[C@H]3CCNC3)n2)ncc1-c1cnn(C)c1 , can you help?
Ans. 53
